# maps each entry to its Relative affinity
Tested on: NMDA receptor
Experiment: [3H]MK-801 binding assay, NMDA receptors in guinea pig brain membranes
Conditions: compared to that of Memantine

>  <Compound>
NC12CC3C4CC5CC3C(C1)C(C5)C4C2

>  <Relative affinity>
0.021

$$$$
>  <Compound>
CC12CC3C4CC5(C)CC3C(C1)C(N)(C5)C4C2

>  <Relative affinity>
0.155

$$$$
>  <Compound>
CC12CC3CC4C1CC1(N)CC2C(C3)C4(C)C1 [MDT-23 (prep from Example 5)]

>  <Relative affinity>
0.243

$$$$
>  <Compound>
NC12CC3CC4C1CC1CC2C(C3)C4(N)C1

>  <Relative affinity>
0.007

$$$$
>  <Compound>
CC12CC3CC4C5CC(N)(CC41)CC2C5C3

>  <Relative affinity>
0.045

$$$$
>  <Compound>
CC12CC3(N)CC4C5CC(CC41)CC2C5C3 (single isomer, unassigned) [MDT-22 (prep from Example 4)]

>  <Relative affinity>
0.332

$$$$
>  <Compound>
CC12CC3CC4C1CC1(O)CC2C(C3)C4(C)C1 [MDT-45, 1,6-dimethyl-4-hydroxydiamantane]

>  <Relative affinity>
0.007

$$$$
>  <Compound>
CC12CC3C4CC5(C)CC(C(C1)C3(N)C5)C4(N)C2

>  <Relative affinity>
0.007

$$$$
>  <Compound>
CC12CC3CC4C1CC1(N)CC2C(C3)C4(C)C1 [MDT-23 (prep from Example 4)]

>  <Relative affinity>
0.187

$$$$
>  <Compound>
CC12CC3C4CC5(C)CC3C(C1)C(CN)(C5)C4C2

>  <Relative affinity>
0.143

$$$$
>  <Compound>
CC12CC3CC4C1CC1(N)CC2C(C3)C4(C)C1 [MDT-33, 1,6-dimethyl-4-aminodiamantane]

>  <Relative affinity>
0.094

$$$$
>  <Compound>
NC12CC3C4CC5(N)CC3C(C1)C(C5)C4C2

>  <Relative affinity>
0.003

$$$$
>  <Compound>
NCC12CC3CC4C5CC(CC41)CC2C5C3

>  <Relative affinity>
0.074

$$$$
>  <Compound>
NC12CC3C4CC5C6CC7CC5C(C4C1)C(C7)(C2)C63

>  <Relative affinity>
0.002

$$$$
>  <Compound>
CC12CC3CC4C1CC1(CN)CC2C(C3)C4(C)C1

>  <Relative affinity>
0.100

$$$$
>  <Compound>
NC12CC3CC4C5CC(CC41)CC2C5C3 [MDT-2]

>  <Relative affinity>
0.114

$$$$
>  <Compound>
CC12CC3CC4C1CC1(N)CC2C(C3)C4(N)C1

>  <Relative affinity>
0.018

$$$$
>  <Compound>
CC(N)C12CC3CC4C5CC(CC41)CC2C5C3 (stereo not drawn)

>  <Relative affinity>
0.183

$$$$
>  <Compound>
Cl.NCC12CC3C4CC5CC3C(C1)C(C5)C4C2

>  <Relative affinity>
0.091

$$$$
>  <Compound>
CC12CC3(N)CC4C5CC(CC41)CC2C5C3 (single isomer, unassigned) [MDT-22 (prep from Example 7)]

>  <Relative affinity>
0.070

$$$$
>  <Compound>
CC12CC3CC4C1CC1CC2C(N)(C3)C4(C)C1 (stereo not drawn)

>  <Relative affinity>
0.143

$$$$
>  <Compound>
CC12CC3(N)CC4C1CC1CC2C(N)(C3)C4(C)C1 (stereo not drawn)

>  <Relative affinity>
0.032

$$$$
>  <Compound>
NC12CC3CC4C5CC(CC41)CC2C5C3 [MDT-1]

>  <Relative affinity>
0.097

$$$$
>  <Compound>
CC12CC3CC(C)(C1)CC(N)(C3)C2 [memantine, 1-amino-3,5-dimethyladamantane, reference compound]

>  <Relative affinity>
1 ^

$$$$

----------
Target: NMDA receptor
Test: [3H]MK-801 binding assay, NMDA receptors in guinea pig brain membranes
Settings: guinea pig brain membrane preparation (Table 29); read-out: Ki
pKi: −log10 of the molar value.
# maps each entry to its pKi

>  <Compound>
O=NC12CC3CC4C5CC(CC41)CC2C5C3 [MDT-26]

>  <pKi>
< 3.00

$$$$
>  <Compound>
O=NC12CC3C4CC5CC3C(C1)C(C5)C4C2 [MDT-27]

>  <pKi>
< 3.00

$$$$
>  <Compound>
CC12CC3C4CC5(C)CC3C(C1)C(C(=O)O)(C5)C4C2 [MDT-52, 4,9-dimethyl-1-diamantanecarboxylic acid]

>  <pKi>
< 3.00

$$$$

The values you see were collected from patent US20080009546A1.
